Where do the numbers come from? From patent US8748412B2.

molecular target: human GLP1R (Homo sapiens, UniProt P43220); construct: expressed in transfected cells; host or cells: CHO cells (ATCC), transient transfection with pCMV-human GLP1R; assay: Human GLP-1 receptor transfected cell assay (MRE/CRE-luciferase reporter gene, agonist activity); type: cell-based; conditions: 6 h; concentration 1 μM; read-out: Activity (agonist), percentage of the activity of the control
Sequence (P43220 24-463): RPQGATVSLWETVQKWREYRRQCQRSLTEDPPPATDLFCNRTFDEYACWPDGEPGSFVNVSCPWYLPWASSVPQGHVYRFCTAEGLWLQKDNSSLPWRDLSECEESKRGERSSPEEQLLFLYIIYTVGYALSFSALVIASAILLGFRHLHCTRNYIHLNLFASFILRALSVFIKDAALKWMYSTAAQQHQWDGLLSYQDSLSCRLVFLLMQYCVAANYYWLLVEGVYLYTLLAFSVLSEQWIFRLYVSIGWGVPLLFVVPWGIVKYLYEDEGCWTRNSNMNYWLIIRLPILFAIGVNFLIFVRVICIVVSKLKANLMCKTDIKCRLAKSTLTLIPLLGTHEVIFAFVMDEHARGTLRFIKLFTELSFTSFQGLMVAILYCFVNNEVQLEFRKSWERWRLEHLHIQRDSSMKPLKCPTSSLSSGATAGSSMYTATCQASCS
Property: activation at 1 µM; scope: individual compounds

{"compound": "CC(C)(C)OC(=O)Nc1ccc(-c2nc(-c3ccc(C[C@@H](NS(=O)(=O)c4ccc(-c5ccccc5)cc4)C(=O)O)cc3F)no2)cc1 [Compound 3Q]", "activation at 1 µM": "20 to 40%"}
{"compound": "Cc1cc(-c2ccc(C(=O)N[C@@H](Cc3ccc(-c4noc(-c5ccc(NC(=O)OC(C)(C)C)cc5)n4)c(F)c3)C(=O)O)o2)ccc1F [Compound 10E]", "activation at 1 µM": "> 60%"}
{"compound": "Cc1cccc(CN2CCN(S(=O)(=O)NC(Cc3ccc(-c4noc(-c5ccc(NC(=O)OC(C)(C)C)cc5)n4)c(F)c3)C(=O)O)CC2)c1 (centres unmarked) [Compound 4C]", "activation at 1 µM": "> 60%"}
{"compound": "CC(C)Oc1ccc(-c2ccc(C(=O)N[C@H](Cc3ccc(-c4noc(-c5ccc(NC(=O)OC(C)(C)C)cc5)n4)c(F)c3)C(=O)O)o2)cc1F [Compound 6O]", "activation at 1 µM": "20 to 40%"}
{"compound": "Cc1ccc(-c2ccc(C(=O)NC(Cc3ccc(-c4noc(-c5ccc(NC(=O)OC(C)(C)C)cc5)n4)c(F)c3)C(=O)O)o2)cc1F (centres unmarked) [Compound 1N]", "activation at 1 µM": "> 60%"}
{"compound": "CC(C)(C)OC(=O)Nc1ccc(-c2nc(-c3ccc(CC(NC(=O)c4cccc(-c5ccc(F)cc5)c4)C(=O)O)cc3F)no2)cc1 (centres unmarked) [Compound 1V]", "activation at 1 µM": "40 to 60%"}
{"compound": "Cc1ccc(-c2ccc(C(=O)NC(Cc3ccc(-c4noc(-c5ccc(NC(=O)OC(C)(C)C)cc5)n4)c(F)c3F)C(=O)O)o2)cc1F (centres unmarked) [Compound 5M]", "activation at 1 µM": "> 60%"}
{"compound": "CC(C)(C)OC(=O)Nc1ccc(-c2nc(-c3ccc(CC(NC(=O)Cc4ccc(-c5ccc(C(F)(F)F)cc5)cc4)C(=O)O)cc3F)no2)cc1 (centres unmarked) [Compound 5I]", "activation at 1 µM": "> 60%"}
{"compound": "Cc1ccc(-c2cccc(C(=O)N[C@H](Cc3ccc(-c4noc(-c5ccc(NC(=O)OC(C)(C)C)cc5)n4)c(F)c3)C(=O)O)c2)cc1F [Compound 6L]", "activation at 1 µM": "20 to 40%"}
{"compound": "CC(C)(C)OC(=O)Nc1ccc(-c2nc(-c3ccc(CC(NC(=O)N4CCN(c5ccc(Cl)cc5)CC4)C(=O)O)cc3F)no2)cc1 (centres unmarked) [Compound 4K]", "activation at 1 µM": "> 60%"}
{"compound": "CC(C)(C)OC(=O)Nc1ccc(-c2nc(-c3ccc(C[C@@H](NC(=O)c4ccc(-c5ccc(C6CC6)cc5)o4)C(=O)O)cc3F)no2)cc1 [Compound 6G]", "activation at 1 µM": "40 to 60%"}
